Measured values drawn from patent US20050049186A1 for this set.

Below is a list of entries, each paired with its recorded IC50 value.
molecular target: anti-estradiol mAb clone 15; experiment: Competitive immunoassay: inhibition of binding of labeled E2 (estradiol ovalbumin europium conjugate) to anti-E2 clone 15; details: Table 5; estradiol ovalbumin europium conjugate
Peptide text beside a SMILES is read from it.
# unit: nM | format: bare number

1) N=C(N)NCCC[C@H](NC(=O)[C@@H](N)CCCCN)C(=O)N[C@@H](Cc1c[nH]c2ccccc12)C(=O)N[C@@H](Cc1ccccc1)C(=O)N[C@@H](Cc1ccccc1)C(=O)N[C@@H](CCC(=O)O)C(=O)O [Peptide 44, KRWFFE] (H-KRWFFE-OH) = 35

Briefly, IC50 measured for C[C@H](NC(=O)[C@@H](N)CCCCN)C(=O)N[C@@H](Cc1c[nH]c2ccccc12)C(=O)N[C@@H](Cc1ccccc1)C(=O)N[C@@H](Cc1ccccc1)C(=O)N[C@@H](CCC(=O)O)C(=O)O [Peptide A-44, KAWFFE] (H-KAWFFE-OH) : 40

* * *

target: anti-estradiol mAb clone 15; test: Competitive immunoassay: inhibition of binding of labeled E2 (estradiol ovalbumin europium conjugate) to anti-E2 clone 15; settings: Table 5; estradiol ovalbumin europium conjugate
Peptide text beside a SMILES is read from it.
Below is a list of entries, each paired with its recorded IC50 value.
# unit: nM | format: bare number

1) CC(C)[C@H](N)C(=O)N[C@@H](CCCNC(=N)N)C(=O)N[C@@H](Cc1c[nH]c2ccccc12)C(=O)N[C@@H](Cc1ccccc1)C(=O)N[C@@H](Cc1ccc(O)cc1)C(=O)N[C@@H](CCC(=O)O)C(=O)O [Peptide B35, VRWFYE] (H-VRWFYE-OH; N-terminus and C-terminus assumed) = 6

# evaluate next
Note to self: IC50 of CC(C)[C@H](N)C(=O)N1CCC[C@H]1C(=O)N[C@@H](Cc1c[nH]c2ccccc12)C(=O)N[C@@H](Cc1ccccc1)C(=O)N[C@@H](Cc1ccccc1)C(=O)N[C@@H](CCC(=O)O)C(=O)O [Peptide B33, VPWFFE] (H-VPWFFE-OH; N-terminus and C-terminus assumed) with anti-estradiol mAb clone 15 was 6

* * *

Peptide text beside a SMILES is read from it.
Consider compounds characterized by their IC50 with ER β (Homo sapiens).
Sequence (Q92731 whole entry, species assumed): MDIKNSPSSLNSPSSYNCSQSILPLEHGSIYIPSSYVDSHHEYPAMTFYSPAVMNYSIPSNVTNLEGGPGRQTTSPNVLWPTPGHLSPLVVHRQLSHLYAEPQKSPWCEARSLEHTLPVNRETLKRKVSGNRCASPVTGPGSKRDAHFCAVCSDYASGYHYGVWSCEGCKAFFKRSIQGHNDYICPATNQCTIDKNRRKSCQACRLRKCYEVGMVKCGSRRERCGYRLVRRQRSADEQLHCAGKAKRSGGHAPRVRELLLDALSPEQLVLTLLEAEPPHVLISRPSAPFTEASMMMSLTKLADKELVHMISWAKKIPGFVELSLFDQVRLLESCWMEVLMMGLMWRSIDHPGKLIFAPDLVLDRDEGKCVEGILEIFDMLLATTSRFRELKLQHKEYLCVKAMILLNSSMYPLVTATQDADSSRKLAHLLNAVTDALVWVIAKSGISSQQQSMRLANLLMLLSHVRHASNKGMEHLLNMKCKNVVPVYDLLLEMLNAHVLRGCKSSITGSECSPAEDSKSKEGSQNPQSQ
# unit: µM | format: bare number

1) N=C(N)NCCC[C@H](NC(=O)[C@@H](N)CCCCN)C(=O)N[C@@H](Cc1c[nH]c2ccccc12)C(=O)N[C@@H](Cc1ccccc1)C(=O)N[C@@H](Cc1ccccc1)C(=O)N[C@@H](CCC(=O)O)C(=O)O [Peptide 44, KRWFFE] (H-KRWFFE-OH) = 400
2) C[C@H](NC(=O)[C@@H](N)CCCCN)C(=O)N[C@@H](Cc1c[nH]c2ccccc12)C(=O)N[C@@H](Cc1ccccc1)C(=O)N[C@@H](Cc1ccccc1)C(=O)N[C@@H](CCC(=O)O)C(=O)O [Peptide A-44, KAWFFE] (H-KAWFFE-OH) = 250
3) CC[C@H](C)[C@H](N)C(=O)N[C@@H](CCCNC(=N)N)C(=O)N[C@@H](Cc1c[nH]c2ccccc12)C(=O)N[C@@H](Cc1ccccc1)C(=O)N[C@@H](Cc1ccccc1)C(=O)N[C@@H](CCC(=O)O)C(=O)O [Peptide B37, IRWFFE] (H-IRWFFE-OH) = 250

# evaluate next
Note to self: IC50 of CC(C)[C@H](N)C(=O)N[C@@H](CO)C(=O)N[C@@H](Cc1c[nH]c2ccccc12)C(=O)N[C@@H](Cc1ccccc1)C(=O)N[C@@H](Cc1ccccc1)C(=O)N[C@@H](CCC(=O)O)C(=O)O [Peptide B34, VSWFFE] (H-VSWFFE-OH) with ER β (Homo sapiens) was 100
